- measurement_target: DDR1 (Homo sapiens (Human), UniProt Q08345)
- Sequence (Q08345 19-913): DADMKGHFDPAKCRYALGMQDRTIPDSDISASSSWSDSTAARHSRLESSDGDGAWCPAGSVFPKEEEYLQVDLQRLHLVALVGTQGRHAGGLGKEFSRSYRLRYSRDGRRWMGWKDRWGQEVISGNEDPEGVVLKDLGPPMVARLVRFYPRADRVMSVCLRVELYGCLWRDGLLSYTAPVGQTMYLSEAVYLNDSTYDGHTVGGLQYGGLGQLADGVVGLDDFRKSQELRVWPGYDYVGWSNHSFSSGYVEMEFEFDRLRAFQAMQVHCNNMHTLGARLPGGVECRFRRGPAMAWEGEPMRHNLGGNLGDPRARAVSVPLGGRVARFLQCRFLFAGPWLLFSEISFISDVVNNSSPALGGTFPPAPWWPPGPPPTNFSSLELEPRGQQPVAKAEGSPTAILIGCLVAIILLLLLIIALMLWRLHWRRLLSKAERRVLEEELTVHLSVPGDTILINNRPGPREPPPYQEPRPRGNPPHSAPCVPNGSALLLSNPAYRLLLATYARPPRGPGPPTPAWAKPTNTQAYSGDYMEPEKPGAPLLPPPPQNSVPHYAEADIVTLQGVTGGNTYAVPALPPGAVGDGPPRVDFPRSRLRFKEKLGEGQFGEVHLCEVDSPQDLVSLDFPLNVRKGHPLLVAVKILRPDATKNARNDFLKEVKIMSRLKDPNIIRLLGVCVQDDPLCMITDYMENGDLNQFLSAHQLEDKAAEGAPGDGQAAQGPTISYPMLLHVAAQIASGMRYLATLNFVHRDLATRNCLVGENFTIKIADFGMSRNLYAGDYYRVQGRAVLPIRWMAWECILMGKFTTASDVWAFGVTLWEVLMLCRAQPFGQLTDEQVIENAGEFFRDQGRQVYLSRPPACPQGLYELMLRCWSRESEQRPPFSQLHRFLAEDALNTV
- method: Measurement of DDR1 binding activity (LanthaScreen Eu Kinase Binding Assay)
attribute_measured: pIC50
One number for each entry, as −log10 of the molar value.

Q: Quick check: pIC50 of CCS(=O)(=O)c1ccc(Cl)cc1Cn1cnc2c(Cl)c(CO)c(C(F)(F)F)cc2c1=O [Compound K-26] ?
Result: 6.62

---

- measurement_target: DDR1 (Homo sapiens (Human))
- method: Measurement of DDR1 enzyme inhibitory activity (phosphorylation of biotinylated peptide, time-resolved fluorescence)
- Format: biochemical
- condition_label: human DDR1 enzyme, biotinylated peptide phosphorylation; read-out: DDR1 enzyme inhibition assay IC50
- Experimental: 1. Measurement of DDR1 Enzyme Inhibitory Activity The DDR1 enzyme inhibitory activity was determined with human DDR1 enzyme prepared using the baculovirus expression system, based on the inhibitory activity of phosphorylation of a biotinylated peptide ([…]) by the enzyme. […]
attribute_measured: IC50 (nM)
Answers are plain numbers, in nM.

Consider the worked cases shown below.
molecule_smiles	value
CCS(=O)(=O)c1ncc(Cl)cc1Nn1cnc2c(Br)cc(C)cc2c1=O	130
Cc1cc(Br)c2ncn(Nc3cc(Cl)ccc3S(=O)(=O)c3ccccc3)c(=O)c2c1	290
CCSc1ccc(Cl)cc1Nn1cnc2ccc(N)cc2c1=O	480

Required: IC50, one value per compound below.
1. CCSc1ccc(C#N)cc1Nn1cnc2ncc(Br)cc2c1=O
2. CCSc1cnc(Cl)cc1Nn1cnc2ccc(C(F)(F)F)cc2c1=O
3. CCS(=O)(=O)c1ccc(Cl)cc1Nn1cnc2ccc(C(C)C)cc2c1=O
4. CCSc1ccc(C#N)cc1Nn1cnc2c(Br)cc(C)cc2c1=O
5. CCSc1ccc(Cl)cc1Nn1cnc2ccc(F)cc2c1=O
6. CCS(=O)(=O)c1ccc(OC)cc1Nn1cnc2ccc(OC(F)(F)F)cc2c1=O
7. Cc1cc(Br)c2ncn(Nc3cc(Cl)ccc3S(C)(=O)=O)c(=O)c2c1
8. CCSc1ccc(Cl)cc1Nn1cnc2ccc(OC)cc2c1=O

Result:
750
93
200
110
88
290
160
68

Required: IC50, one value per compound below.
1. CCOc1ccc2ncn(Nc3cc(Cl)ccc3S(=O)(=O)CC)c(=O)c2c1
2. CCS(=O)(=O)c1ccc(Cl)cc1Nn1cnc2cnc(Cl)cc2c1=O
3. CCS(=O)(=O)c1ccc(Cl)cc1Cn1cnc2c(Br)c(C)c(Br)cc2c1=O
4. C=Cc1ccc2ncn(Nc3cc(Cl)ccc3S(=O)(=O)CC)c(=O)c2c1
5. CCS(=O)(=O)c1ccc(C#N)cc1Nn1cnc2cc(C)c(Br)cc2c1=O
6. CCSc1cc(Cl)c(C#N)cc1Nn1cnc2ccc(C(F)(F)F)cc2c1=O

Result:
1. 430
2. 1230
3. 150
4. 200
5. 250
6. 450

Q: Quick check: IC50 of CCSc1c(Cl)cc(Cl)cc1Nn1cnc2ccc(C(F)(F)F)cc2c1=O ?
Result: 280

---

- measurement_target: DDR1 (Homo sapiens (Human), UniProt Q08345)
- method: Measurement of DDR1 enzyme inhibitory activity (phosphorylation of biotinylated peptide, time-resolved fluorescence)
- Format: biochemical
- condition_label: human DDR1 enzyme, biotinylated peptide phosphorylation; read-out: DDR1 enzyme inhibition assay IC50
Provide the reported IC50 of each item.
One number for each entry, in nM.

molecule	IC50 / nM
N#Cc1ccc(Sc2ccccc2)c(Nn2cnc3ccc(C(F)(F)F)cc3c2=O)c1 [Compound B-15]	860
CSc1ccc(Cl)cc1Nn1cnc2c(Br)cc(C)cc2c1=O [Compound B-1]	250
C#Cc1ccc(SCC)c(Nn2cnc3c(Br)cc(C(F)(F)F)cc3c2=O)c1 [Compound C-36]	280
CCCSc1ccc(Cl)cc1Nn1cnc2c(Br)cc(C)cc2c1=O [Compound B-3]	140

Required: IC50, one value per molecule below.
1. CCSc1ccc(OC)cc1Nn1cnc2ccc(OC(F)(F)F)cc2c1=O [Compound C-27]
2. CCCS(=O)(=O)c1ccc(Cl)cc1Nn1cnc2c(Br)cc(C)cc2c1=O [Compound B-4]
3. CCSc1ncc(Cl)cc1Nn1cnc2c(Br)cc(C)cc2c1=O [Compound D-4]
4. CCS(=O)(=O)c1ccc(C#N)cc1Nn1cnc2ccc(OC(F)(F)F)cc2c1=O [Compound C-16]
5. CCS(=O)(=O)c1ccc(OC)cc1Nn1cnc2c(Br)cc(C(F)(F)F)cc2c1=O [Compound C-30]

Result:
1. 200
2. 110
3. 580
4. 270
5. 150
